Tested on: Klebsiella pneumoniae K-13
Test: minimum inhibitory concentration, agar dilution assay
Format: cell-based
Conditions: K13, agar dilution, 35° C., 20 hours, read-out: minimum inhibitory concentration
Method: The antibiotic activities shown in Tables I-1 to I-8 above were determined in the following manner. The minimum inhibitory concentrations of the compounds of formula (I-a-1) or (I-b-1) in Tables I-1 to I-7 and the known compounds in Table I-8 on the various microorganisms shown in the above tables were measured by an agar dilution assay method using a brain heart infusion agar medium "Difco" (a product of Difco Laboratories Inc.) […]
ENDPOINT_LABEL: MIC (µg/mL)

COMPOUND | QUANTITATIVE_RESULT
CCC1C(=O)N2C(C(=O)O)=C(SCCNC(C)=O)CC12 (stereo not shown) [PS-5, reference compound] | 6.25
Cc1nnc(SCC2=C(C(=O)O)N3C(=O)[C@@H](NC(=O)Cn4cnnn4)[C@H]3SC2)s1 [CEZ, cephazolin, reference compound] | 200
CC(O)[C@H]1C(=O)N2C(C(=O)O)=C(SCCO)C[C@H]12 (stereo partly shown) | 25
CC(C)C1C(=O)N2C(C(=O)O)=C(SCCO)CC12 (stereo not shown) | 12.5
CC(O)C1C(=O)N2C(C(=O)O)=C(SCCO)CC12 (stereo not shown) | 25

[P] CC(C)C1C(=O)N2C(C(=O)O)=C(Sc3ncccn3)CC12 (stereo not shown)
[Q] CCC1C(=O)N2C(C(=O)O)=C(SCCO)CC12 (stereo not shown)
[R] CC(O)[C@H]1C(=O)N2C(C(=O)O)=C(Sc3ccccn3)C[C@H]12 (stereo partly shown)
Order the records so the highest MIC appears first and the lowest last. Lab note: record answer as labels in requested order.
R, P, Q
(R: 50 µg/mL, P: 25 µg/mL, Q: 12.5 µg/mL)

* * *

System: Staphylococcus aureus FDA 209P
Test: minimum inhibitory concentration, agar dilution assay
Type: cell-based
Details: FDA209P, agar dilution, 35° C., 20 hours, read-out: minimum inhibitory concentration
ENDPOINT_LABEL: MIC (µg/mL)

MOLECULE | UNIT_NAME | MIC
CC(C)C1C(=O)N2C(C(=O)O)=C(SC3CCCCC3)CC12 (stereo not shown) | µg/mL | 0.025
CC(O)[C@H]1C(=O)N2C(C(=O)O)=C(Sc3ccncc3)C[C@H]12 (stereo partly shown) | µg/mL | 0.1
CC(O)C1C(=O)N2C(C(=O)O)=C(SC3CCCCC3)CC12 (stereo not shown) | µg/mL | 0.013
CC(=O)NCCSC1=C(C(=O)O)N2C(=O)[C@H](C(C)O)[C@H]2C1 (stereo partly shown) [PS-3A, reference compound] | µg/mL | 0.31
CC(O)[C@H]1C(=O)N2C(C(=O)O)=C(Sc3ncccn3)C[C@H]12 (stereo partly shown) | µg/mL | 0.2
CC(O)[C@H]1C(=O)N2C(C(=O)O)=C(SCCO)C[C@H]12 (stereo partly shown) | µg/mL | 0.39
CCC1C(=O)N2C(C(=O)O)=C(SCCNC(C)=O)CC12 (stereo not shown) [PS-5, reference compound] | µg/mL | 0.025
CC(C)C1C(=O)N2C(C(=O)O)=C(SCCO)CC12 (stereo not shown) | µg/mL | 0.2
Cc1nnc(SCC2=C(C(=O)O)N3C(=O)[C@@H](NC(=O)Cn4cnnn4)[C@H]3SC2)s1 [CEZ, cephazolin, reference compound] | µg/mL | 0.1

[a] CC(O)C1C(=O)N2C(C(=O)O)=C(SCCO)CC12 (stereo not shown)
[b] CC(O)[C@H]1C(=O)N2C(C(=O)O)=C(Sc3ccccn3)C[C@H]12 (stereo partly shown)
[c] CC(C)C1C(=O)N2C(C(=O)O)=C(Sc3ncccn3)CC12 (stereo not shown)
[d] CCCCSC1=C(C(=O)O)N2C(=O)C(C(C)C)C2C1 (stereo not shown)
Order the records so the highest MIC appears first and the lowest last. Lab note: record answer as labels in requested order.
d, b, a, c
(d: 0.48 µg/mL, b: 0.05 µg/mL, a: 0.013 µg/mL, c: 0.007 µg/mL)

* * *

Test: Test for concentration in blood (plasma of mouse, bioassay)
Format: in vivo
Conditions: sc, subcutaneous, 2 mg/mouse, average of five mice, read-out: Maximum concentration
ENDPOINT_LABEL: Cmax (µg/mL)
Answer format: numeric, µg/mL implied, no suffix.

// CC(=O)NCCSC1=C(C(=O)O)N2C(=O)[C@H](C(C)O)[C@H]2C1 (stereo partly shown) : Cmax value = 52

* * *

Items are presented alongside their recorded MIC.
System: Proteus sp. P22
Assay: minimum inhibitory concentration, agar dilution assay
Format: cell-based
Conditions: agar dilution, 35° C., 20 hours; read-out: minimum inhibitory concentration

Answered cases to consult:
COMPOUND | MIC
Cc1nnc(SCC2=C(C(=O)O)N3C(=O)[C@@H](NC(=O)Cn4cnnn4)[C@H]3SC2)s1 [CEZ, cephazolin, reference compound] | > 200 µg/mL
CC(O)C1C(=O)N2C(C(=O)O)=C(SC3CCCCC3)CC12 (stereo not drawn) | > 100 µg/mL

Moving on to another compound below.
Considering CC(O)C1C(=O)N2C(C(=O)O)=C(Sc3ccccc3)CC12 (stereo not drawn) , its MIC with Proteus sp. P22 was recorded as > 100 µg/mL

* * *

Tested on: Escherichia coli RGN 823
Assay: minimum inhibitory concentration, agar dilution assay
Assay type: cell-based
Conditions: RGN823, agar dilution, 35° C., 20 hours, read-out: minimum inhibitory concentration
ENDPOINT_LABEL: MIC (µg/mL)

Answered cases to consult:
COMPOUND | MIC / µg/mL
CC(=O)NCCSC1=C(C(=O)O)N2C(=O)C(C(C)C)C2C1 (centres unmarked) [PS-6, reference compound] | 6.25
CC(O)[C@H]1C(=O)N2C(C(=O)O)=C(Sc3ccccn3)C[C@H]12 (some centres unmarked) | 12.5
CCC1C(=O)N2C(C(=O)O)=C(SCCNC(C)=O)CC12 (centres unmarked) [PS-5, reference compound] | 3.13

[A] CCC1C(=O)N2C(C(=O)O)=C(Sc3ncccn3)CC12 (centres unmarked)
[B] CCC1C(=O)N2C(C(=O)O)=C(SCCO)CC12 (centres unmarked)
Task for the reader: decide whether A or B has the larger MIC. To answer, give the label that identifies your chosen option.
B
(B: 12.5 µg/mL, A: 3.13 µg/mL)

[P] CC(O)[C@H]1C(=O)N2C(C(=O)O)=C(Sc3ccncc3)C[C@H]12 (some centres unmarked)
[Q] CC(O)[C@H]1C(=O)N2C(C(=O)O)=C(Sc3ccccc3)C[C@H]12 (some centres unmarked)
Task for the reader: decide whether P or Q has the larger MIC. To answer, give the label that identifies your chosen option.
Q

[A] CC(C)C1C(=O)N2C(C(=O)O)=C(SCCO)CC12 (centres unmarked)
[B] CC(O)C1C(=O)N2C(C(=O)O)=C(SCCO)CC12 (centres unmarked)
Decide: A or B , by lowest recorded MIC. To answer, give the label that identifies your chosen option.
B

[a] CC(O)[C@H]1C(=O)N2C(C(=O)O)=C(SCCO)C[C@H]12 (some centres unmarked)
[b] CC(O)C1C(=O)N2C(C(=O)O)=C(SC3CCCCC3)CC12 (centres unmarked)
[c] CC(C)C1C(=O)N2C(C(=O)O)=C(Sc3ncccn3)CC12 (centres unmarked)
// smallest MIC at index 0, largest at the end Lab note: record answer as labels in requested order.
c, a, b
(c: 3.13 µg/mL, a: 12.5 µg/mL, b: 100 µg/mL)

* * *

System: Enterobacter sp. E8
Test: minimum inhibitory concentration, agar dilution assay
Type: cell-based
Settings: SP.E8, agar dilution, 35° C., 20 hours, read-out: minimum inhibitory concentration
ENDPOINT_LABEL: MIC

COMPOUND | MIC
CC(O)[C@H]1C(=O)N2C(C(=O)O)=C(SC3CCCCC3)C[C@H]12 (stereo partly drawn) | > 100 µg/mL

// CCC1C(=O)N2C(C(=O)O)=C(SC3CCCCC3)CC12 (stereo not drawn) : MIC value = > 180 µg/mL

// CC(C)C1C(=O)N2C(C(=O)O)=C(SC3CCCCC3)CC12 (stereo not drawn) : MIC value = > 100 µg/mL

* * *

Test system: Klebsiella pneumoniae K-13
Test: minimum inhibitory concentration, agar dilution assay
Format: cell-based
Settings: K13, agar dilution, 35° C., 20 hours, read-out: minimum inhibitory concentration
Protocol: The antibiotic activities shown in Tables I-1 to I-8 above were determined in the following manner. The minimum inhibitory concentrations of the compounds of formula (I-a-1) or (I-b-1) in Tables I-1 to I-7 and the known compounds in Table I-8 on the various microorganisms shown in the above tables were measured by an agar dilution assay method using a brain heart infusion agar medium "Difco" (a product of Difco Laboratories Inc.) […]
ENDPOINT_LABEL: MIC

MOLECULE | ENDPOINT_LABEL | RESULT
CC(O)[C@H]1C(=O)N2C(C(=O)O)=C(Sc3ccccc3)C[C@H]12 (some centres unmarked) | MIC | > 100 µg/mL
CC(O)[C@H]1C(=O)N2C(C(=O)O)=C(SC3CCCCC3)C[C@H]12 (some centres unmarked) | MIC | > 100 µg/mL

Considering CC(O)C1C(=O)N2C(C(=O)O)=C(Sc3ccccn3)CC12 (centres unmarked) , its MIC with Klebsiella pneumoniae K-13 was recorded as 25 µg/mL

Considering CC(O)[C@H]1C(=O)N2C(C(=O)O)=C(Sc3ncccn3)C[C@H]12 (some centres unmarked) [Example 63] , its MIC with Klebsiella pneumoniae K-13 was recorded as 25 µg/mL

Considering CC(C)C1C(=O)N2C(C(=O)O)=C(Sc3ccccc3)CC12 (centres unmarked) , its MIC with Klebsiella pneumoniae K-13 was recorded as > 100 µg/mL

Considering CCC1C(=O)N2C(C(=O)O)=C(SC3CCCCC3)CC12 (centres unmarked) [Example 67] , its MIC with Klebsiella pneumoniae K-13 was recorded as > 180 µg/mL

Considering CC(=O)NCCSC1=C(C(=O)O)N2C(=O)[C@H](C(C)O)[C@H]2C1 (some centres unmarked) [PS-3A, reference compound] , its MIC with Klebsiella pneumoniae K-13 was recorded as 10 µg/mL

Considering CC(C)C1C(=O)N2C(C(=O)O)=C(SC3CCCCC3)CC12 (centres unmarked) , its MIC with Klebsiella pneumoniae K-13 was recorded as > 100 µg/mL

Considering CC(O)C1C(=O)N2C(C(=O)O)=C(Sc3ccccc3)CC12 (centres unmarked) , its MIC with Klebsiella pneumoniae K-13 was recorded as > 100 µg/mL

Considering CC(=O)NCCSC1=C(C(=O)O)N2C(=O)C(C(C)C)C2C1 (centres unmarked) [PS-6, reference compound] , its MIC with Klebsiella pneumoniae K-13 was recorded as 25 µg/mL

Considering CC(O)C1C(=O)N2C(C(=O)O)=C(SC3CCCCC3)CC12 (centres unmarked) , its MIC with Klebsiella pneumoniae K-13 was recorded as > 100 µg/mL
